- system: EPHB2 (UniProt P29323)
- Sequence (P29323 whole entry, looked up): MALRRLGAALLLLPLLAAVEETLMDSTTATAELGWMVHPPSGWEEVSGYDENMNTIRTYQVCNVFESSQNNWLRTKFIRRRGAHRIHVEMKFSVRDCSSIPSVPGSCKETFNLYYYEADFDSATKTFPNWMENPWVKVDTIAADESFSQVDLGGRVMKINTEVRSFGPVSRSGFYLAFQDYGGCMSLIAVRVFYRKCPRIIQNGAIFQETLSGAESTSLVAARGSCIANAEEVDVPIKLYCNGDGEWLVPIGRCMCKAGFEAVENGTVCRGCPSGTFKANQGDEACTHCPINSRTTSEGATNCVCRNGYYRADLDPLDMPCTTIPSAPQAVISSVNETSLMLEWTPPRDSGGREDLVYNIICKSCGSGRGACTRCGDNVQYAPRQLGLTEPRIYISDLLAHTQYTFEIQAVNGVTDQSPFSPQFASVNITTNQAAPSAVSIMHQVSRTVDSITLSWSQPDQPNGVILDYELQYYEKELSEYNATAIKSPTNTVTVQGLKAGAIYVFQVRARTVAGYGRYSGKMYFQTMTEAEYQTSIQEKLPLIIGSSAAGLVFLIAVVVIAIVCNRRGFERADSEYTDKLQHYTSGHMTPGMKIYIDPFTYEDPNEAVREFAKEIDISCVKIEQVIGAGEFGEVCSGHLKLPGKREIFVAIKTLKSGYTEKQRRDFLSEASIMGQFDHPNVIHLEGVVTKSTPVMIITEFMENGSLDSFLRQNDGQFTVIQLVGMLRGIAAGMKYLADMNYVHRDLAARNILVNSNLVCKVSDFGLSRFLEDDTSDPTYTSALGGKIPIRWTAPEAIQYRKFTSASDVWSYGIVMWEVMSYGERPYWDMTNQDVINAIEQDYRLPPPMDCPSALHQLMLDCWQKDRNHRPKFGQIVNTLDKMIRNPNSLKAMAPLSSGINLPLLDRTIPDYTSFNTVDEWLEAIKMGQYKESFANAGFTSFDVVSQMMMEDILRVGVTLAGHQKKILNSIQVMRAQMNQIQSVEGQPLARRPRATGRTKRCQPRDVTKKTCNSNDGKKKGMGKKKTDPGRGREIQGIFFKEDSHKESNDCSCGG
- protocolSummary: phosphorylation enrichment, bacterial display (enrichment ratio); higher = better substrate or ligand; peptides without Tyr show the background
measuredMetric: phosphorylation enrichment
# output: bare number, no unit

Study these solved cases before continuing.
>>> value("ESPGLCGFLNV [BCR_Y910_Y910C]")
0.617
>>> value("LFDPDFMKVIL [CYP4A22_Y104_Y104F_YF]")
0.908
>>> value("IQKKFYRAILE [CHD7_Y1218_YF]")
0.275
>>> value("LQFRNYQQLFD [MAN2A1_Y442_K440R]")
0.928
>>> value("KPGVNYFFQVS")
0.577
>>> value("STSYDYCRVPM [BST2_Y8]")
10.3

Enquiry: Tell me phosphorylation enrichment of RFLERYIFNPE [HLA-DPB1_Y57_R61P_YF] when tested on EPHB2 (UniProt P29323).
Return: 0.666

Enquiry: Tell me phosphorylation enrichment of CSRRLYQLTKL [AR_Y858_F857L] when tested on EPHB2 (UniProt P29323).
Return: 0.59

Enquiry: Tell me phosphorylation enrichment of DNEAIYDICRC [TUBA4A_Y210_R215C] when tested on EPHB2 (UniProt P29323).
Return: 4.87

Enquiry: Tell me phosphorylation enrichment of KDHPDYKYPPR [SOX10_Y171_Q174P] when tested on EPHB2 (UniProt P29323).
Return: 0.392

Enquiry: Tell me phosphorylation enrichment of IHHIDYYKETT [FGFR1_Y653_K656E] when tested on EPHB2 (UniProt P29323).
Return: 0.653

---

- system: c-Src SH2;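 note: peptide library displayed on the E. coli surface as eCPX fusions, selected cells deep-sequenced, score is each peptide's frequency after selection divided by its frequency in the input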
- protocolSummary: SH2 binding enrichment of the phosphorylated peptide, bacterial display (enrichment ratio); higher = better substrate or ligand; peptides without Tyr show the background
Decision: SH2 binding enrichment compared against 0.8; not below it gives rule met, below it gives rule not met.

Solved cases (5 shown):
>>> assignedlabel("QELRRYLKSGI [MICA_Y194_V199I]")
"rule not met"
>>> assignedlabel("ELRGTYTSLQQ [KIF3C_Y574]")
"rule met"
>>> assignedlabel("NTGGYYDLYGG [PTPN11_Y63_D61G]")
"rule met"
>>> assignedlabel("QHNPEYVQQAS [LRRC7_Y1058]")
"rule not met"
>>> assignedlabel("SVDRDYVLKSA [HTATIP2_Y111_R106S]")
"rule not met"

Enquiry: State whether the measured SH2 binding enrichment reaches 0.8, counting equality as reaching it, for PVKSEYSSIKL [NPC2_Y119_P120S]
Return: rule met

Enquiry: State whether the measured SH2 binding enrichment reaches 0.8, counting equality as reaching it, for CTAIHYNFMCN [TP53_Y234_T231A_YF]
Return: rule met

---

- system: FGFR1 (UniProt P11362)
- Sequence (P11362 whole entry, looked up): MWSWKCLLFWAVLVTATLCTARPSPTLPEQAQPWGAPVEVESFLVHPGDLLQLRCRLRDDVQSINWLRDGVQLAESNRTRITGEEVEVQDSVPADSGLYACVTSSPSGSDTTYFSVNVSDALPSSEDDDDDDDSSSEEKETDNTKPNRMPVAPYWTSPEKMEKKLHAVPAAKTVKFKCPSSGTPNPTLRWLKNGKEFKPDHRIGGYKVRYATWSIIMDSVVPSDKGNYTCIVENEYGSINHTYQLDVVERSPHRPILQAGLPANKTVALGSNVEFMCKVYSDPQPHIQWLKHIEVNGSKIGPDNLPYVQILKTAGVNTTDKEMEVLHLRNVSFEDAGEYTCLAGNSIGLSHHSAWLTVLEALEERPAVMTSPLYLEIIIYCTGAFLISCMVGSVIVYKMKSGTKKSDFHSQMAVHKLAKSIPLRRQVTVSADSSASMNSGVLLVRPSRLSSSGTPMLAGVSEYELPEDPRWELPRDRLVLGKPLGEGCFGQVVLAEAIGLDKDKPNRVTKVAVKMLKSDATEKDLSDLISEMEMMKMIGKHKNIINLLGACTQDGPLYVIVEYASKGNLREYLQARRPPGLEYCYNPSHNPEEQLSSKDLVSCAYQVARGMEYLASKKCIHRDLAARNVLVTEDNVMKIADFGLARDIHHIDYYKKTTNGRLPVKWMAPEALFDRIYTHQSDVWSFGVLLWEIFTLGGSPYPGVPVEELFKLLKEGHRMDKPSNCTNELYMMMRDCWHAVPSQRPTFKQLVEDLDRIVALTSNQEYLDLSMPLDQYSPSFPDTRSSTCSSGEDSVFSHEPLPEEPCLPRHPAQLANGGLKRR
- protocolSummary: phosphorylation enrichment, bacterial display (enrichment ratio); higher = better substrate or ligand; peptides without Tyr show the background
// reported phosphorylation enrichment per item
# output: bare number, no unit

Study these solved cases before continuing.
>>> value("VLTPKYRGGGG [HBA1_Y141_S139P]")
0.348
>>> value("AIFWRYSKFFD [SH3PXD2B_Y45_R43W_YF]")
0.445

Enquiry: Tell me phosphorylation enrichment of VTVLDYDKTGK [SYT1_Y365_I368T] when tested on FGFR1 (UniProt P11362).
Return: 0.463

---

- system: FGFR1 (UniProt P11362)
- protocolSummary: phosphorylation enrichment, bacterial display (enrichment ratio); higher = better substrate or ligand; peptides without Tyr show the background
Consider the reported phosphorylation enrichment of an entry and match it to a band in band A (below 0.5), band B (0.5 to below 0.7), band C (0.7 or more)

>>> assignedlabel("QEITTYRRLLE [KRT14_Y415_A413T]")
"band B"
>>> assignedlabel("PATINYLFEKG [NDUFS8_Y84_P85L]")
"band C"
>>> assignedlabel("LGKLIYPVGFW [NTHL1_Y177]")
"band C"
>>> assignedlabel("LNPFIYSLRNW [OR1A2_Y288]")
"band B"
>>> assignedlabel("QKDIFYGLRSL [IGSF10_Y126_T124I]")
"band B"
>>> assignedlabel("GAAMLYYPSVS [GPR143_Y177]")
"band C"
>>> assignedlabel("DQLVKYGVNPG [TMPO_Y127]")
"band A"
>>> assignedlabel("AAETTYDKILK [GDNF_Y156]")
"band A"

Enquiry: Given MHFSNYVSKGS [PDGFRA_Y849_D846Y_YF] , name the class its phosphorylation enrichment places it in.
Return: band A

Enquiry: Given KDHPDYKYQRR [SOX10_Y171_P175R] , name the class its phosphorylation enrichment places it in.
Return: band A

---

- system: Hck (UniProt P08631)
- Sequence (P08631 whole entry, looked up): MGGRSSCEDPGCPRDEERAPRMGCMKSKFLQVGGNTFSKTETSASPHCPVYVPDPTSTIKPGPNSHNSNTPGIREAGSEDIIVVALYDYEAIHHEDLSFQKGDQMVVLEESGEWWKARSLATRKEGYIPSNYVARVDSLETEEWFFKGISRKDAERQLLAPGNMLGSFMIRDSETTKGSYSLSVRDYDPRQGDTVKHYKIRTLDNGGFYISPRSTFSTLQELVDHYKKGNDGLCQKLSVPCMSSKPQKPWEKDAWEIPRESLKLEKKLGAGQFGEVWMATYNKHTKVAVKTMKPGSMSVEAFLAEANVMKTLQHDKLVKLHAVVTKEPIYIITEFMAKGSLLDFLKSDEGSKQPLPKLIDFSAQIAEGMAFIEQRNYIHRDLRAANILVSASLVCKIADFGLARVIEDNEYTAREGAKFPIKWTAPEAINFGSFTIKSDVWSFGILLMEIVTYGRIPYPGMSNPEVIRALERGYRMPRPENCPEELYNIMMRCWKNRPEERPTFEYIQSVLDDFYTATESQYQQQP
- protocolSummary: phosphorylation enrichment, bacterial display (enrichment ratio); higher = better substrate or ligand; peptides without Tyr show the background
// reported phosphorylation enrichment per item
# output: bare number, no unit

>>> value("HDHFGYRQSVT [CD55_Y245_R240H_YF]")
0.51
>>> value("RTLIRYANLGN [BEST1_Y131]")
0.481
>>> value("STSYDYCRVPM [BST2_Y8]")
2.22
>>> value("EDSEYYRAFEE [CASQ2_Y179_K180R]")
0.675
>>> value("RRIFSYRGHLW [VHL_Y112_H110Y_YF]")
0.712

Enquiry: Look up and report measured phosphorylation enrichment for this entry: DPHKIFEFVNS [IRF3_Y107_Y107F]
Return: 0.607

Enquiry: Look up and report measured phosphorylation enrichment for this entry: CLRIDYERVSQ [DSP_Y1542_R1537C]
Return: 0.631

Enquiry: Look up and report measured phosphorylation enrichment for this entry: TIQMMYGCDVG [HLA-A_Y123_I121M]
Return: 0.501

Enquiry: Look up and report measured phosphorylation enrichment for this entry: RIVEIYSRRLR [GCH1_Y175_Q180R]
Return: 0.736

---

// reported phosphorylation enrichment per item
- system: FGFR1 (UniProt P11362)
- protocolSummary: phosphorylation enrichment, bacterial display (enrichment ratio); higher = better substrate or ligand; peptides without Tyr show the background
# output: bare number, no unit

Enquiry: Look up and report measured phosphorylation enrichment for this entry: TSYQMYDKGLV [IARS2_Y231_F227S]
Return: 0.496

---

- System: c-Src
- protocolSummary: phosphorylation enrichment, bacterial display (enrichment ratio); higher = better substrate or ligand; peptides without Tyr show the background
// reported phosphorylation enrichment per item
# output: bare number, no unit

Study these solved cases before continuing.
>>> value("EKKDVYKAGEQ [CFH_Y1008]")
0.394
>>> value("NRDNTYNRVSE [FGA_Y127]")
0.405
>>> value("NFDRVYIYHLR [MYOF_Y1137]")
1.01
>>> value("NTILLYHIMAW [GPR143_Y157_S152N]")
1.27
>>> value("LENQTYFKSFE [AKAP9_Y2482]")
0.579
>>> value("EYDRLYEEYTR [PIK3R1_Y467]")
5.99
>>> value("TSGVVYKARNK [CDK2_Y19_Y15S]")
0.516
>>> value("EIHTQYEAMAS [GFAP_Y242_R239H]")
0.383

Please examine the following record next.
Enquiry: Tell me phosphorylation enrichment of QKPLDYYRVNL [GALE_Y104] when tested on c-Src.
Return: 1.85

---

- system: EPHB2 (UniProt P29323)
- protocolSummary: phosphorylation enrichment, bacterial display (enrichment ratio); higher = better substrate or ligand; peptides without Tyr show the background
measuredMetric: phosphorylation enrichment
# output: bare number, no unit

Study these solved cases before continuing.
>>> value("DLDLTSIYPNI [PTEN_Y27_Y27S]")
0.582
>>> value("KLFRVYCDMNT [FGB_Y269_P265L_YF]")
0.619
>>> value("QHNPEYVQQAS [LRRC7_Y1058]")
0.604
>>> value("VEFAKYGSLQG [RET_Y809_R813Q_YF]")
0.471
>>> value("YKWAVYCIIGR [NUP93_Y391_R388W]")
1.83
>>> value("ISSLDYISKSK [VAV3_Y294_T298S]")
0.467

Enquiry: Look up and report measured phosphorylation enrichment for this entry: SNFRAYATEPH [TNNI3_Y29_YF]
Return: 0.463

Enquiry: Look up and report measured phosphorylation enrichment for this entry: YPKAHYHWLVL [APTX_Y214_R213H]
Return: 0.482

---

- system: MERTK (UniProt Q12866)
- Sequence (Q12866 whole entry, looked up): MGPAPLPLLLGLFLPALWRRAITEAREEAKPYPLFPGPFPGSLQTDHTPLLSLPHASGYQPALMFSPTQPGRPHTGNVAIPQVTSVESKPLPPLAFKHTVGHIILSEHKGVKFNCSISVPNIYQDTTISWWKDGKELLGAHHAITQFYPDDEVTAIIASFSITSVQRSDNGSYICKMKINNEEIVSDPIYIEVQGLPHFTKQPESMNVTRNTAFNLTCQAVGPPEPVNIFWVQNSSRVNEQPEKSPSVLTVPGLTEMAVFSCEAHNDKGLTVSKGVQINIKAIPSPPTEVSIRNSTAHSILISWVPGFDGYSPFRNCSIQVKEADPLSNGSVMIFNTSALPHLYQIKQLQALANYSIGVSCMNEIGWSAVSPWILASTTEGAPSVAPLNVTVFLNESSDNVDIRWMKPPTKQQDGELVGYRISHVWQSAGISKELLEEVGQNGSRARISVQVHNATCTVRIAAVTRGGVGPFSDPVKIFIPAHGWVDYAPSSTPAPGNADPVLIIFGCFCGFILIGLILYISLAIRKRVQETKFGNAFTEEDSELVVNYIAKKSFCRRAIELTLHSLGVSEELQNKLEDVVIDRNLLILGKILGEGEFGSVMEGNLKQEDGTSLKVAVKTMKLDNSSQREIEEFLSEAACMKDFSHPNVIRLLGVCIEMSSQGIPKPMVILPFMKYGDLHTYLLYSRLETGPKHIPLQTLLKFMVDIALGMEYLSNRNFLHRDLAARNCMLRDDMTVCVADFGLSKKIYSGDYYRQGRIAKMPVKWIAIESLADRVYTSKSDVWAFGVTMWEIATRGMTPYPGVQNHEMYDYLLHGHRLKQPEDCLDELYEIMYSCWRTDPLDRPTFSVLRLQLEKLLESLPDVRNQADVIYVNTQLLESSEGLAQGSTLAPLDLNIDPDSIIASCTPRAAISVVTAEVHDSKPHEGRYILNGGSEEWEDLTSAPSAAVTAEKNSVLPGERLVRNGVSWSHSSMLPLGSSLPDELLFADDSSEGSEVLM
- protocolSummary: phosphorylation enrichment, bacterial display (enrichment ratio); higher = better substrate or ligand; peptides without Tyr show the background
// reported phosphorylation enrichment per item
# output: bare number, no unit

>>> value("LSAPCYLNRIS [HEXA_Y421_W420C]")
0.382
>>> value("ADYYDYGHGLS [KHDRBS3_Y304]")
4.16
>>> value("AAETTYDKILK [GDNF_Y156]")
0.376
>>> value("GGRIDYIAGLD [APRT_Y60]")
0.46
>>> value("DLDLTSIYPNI [PTEN_Y27_Y27S]")
0.516
>>> value("PQIVNYSPDCI [LDHB_Y128_K127N]")
0.179
>>> value("TVSRPYSFIEF [SEC22B_Y110]")
6.03
>>> value("HSKGIYYVQLE [MGAT4B_Y262_Q257H]")
9.49
>>> value("PPGRSYSPFDF [TNS1_Y793_YF]")
0.598
>>> value("FDDGKYVFVVT [RPS6KA3_Y488_YF]")
0.474

Enquiry: Look up and report measured phosphorylation enrichment for this entry: DKATEYIQYVR [MAX_Y70_M74V]
Return: 0.425

Enquiry: Look up and report measured phosphorylation enrichment for this entry: ADKAAYLQSMN [MYH2_Y389_L393M]
Return: 0.366
